Exercise: state measured Ki for each of the compounds provided.
# tested-on: Type-1 angiotensin II receptor (Homo sapiens, UniProt P30556)
# Sequence (P30556 whole entry): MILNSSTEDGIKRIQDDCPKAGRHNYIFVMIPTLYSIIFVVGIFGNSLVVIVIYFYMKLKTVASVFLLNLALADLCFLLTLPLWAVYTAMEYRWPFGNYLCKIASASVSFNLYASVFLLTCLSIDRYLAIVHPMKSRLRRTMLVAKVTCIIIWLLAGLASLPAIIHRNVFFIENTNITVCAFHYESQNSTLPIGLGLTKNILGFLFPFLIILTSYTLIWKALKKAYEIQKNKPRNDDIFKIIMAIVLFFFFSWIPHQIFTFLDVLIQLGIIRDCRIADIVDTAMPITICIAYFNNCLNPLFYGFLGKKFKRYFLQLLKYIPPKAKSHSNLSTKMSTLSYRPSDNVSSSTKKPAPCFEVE
# protocol: Displacement of [3H]-Asp-{Nomega-[N-(4-propanoylaminobutyl)aminocarbonyl]}Arg-ValTyr-Ile-His-Pro-Phe-OH Tris(hydrotrifluoroacetate) from human AT1 receptor transfected in CHO cells co-expressing Galpha16-mtAEQ after 2 hrs by liquid scintillation counting
*1 amine or outer side, *2 acyl side, *3 side chain or, on linkers, in order; H or OH if unused. Where a SMILES comes first, the peptide text is derived from it. [ ]: non-standard residue; d: D form. X1 = CCC(=O)NCCCCNC(=O)/N=C(\N)NCCC[C@H](N[*:1])C(=O)[*:2]; X3 = NCCOCCOCCNC(=O)/N=C(\N)NCCC[C@H](N[*:1])C(=O)[*:2]; X2 = NCCCCNC(=O)/N=C(\N)NCCC[C@H](N[*:1])C(=O)[*:2]
Could you give me the number in nM? Just the number is fine.

Query block: Which Ki value is on record for CC[C@H](C)[C@H](NC(=O)[C@H](Cc1ccc(O)cc1)NC(=O)[C@@H](NC(=O)[C@H](CCCN/C(N)=N/C(=O)NCCCCN)NC(=O)[C@@H](N)CC(=O)O)C(C)C)C(=O)N[C@@H](Cc1cnc[nH]1)C(=O)N1CCC[C@H]1C(=O)N[C@@H](Cc1ccccc1)C(=O)O.O=C(O)C(F)(F)F.O=C(O)C(F)(F)F.O=C(O)C(F)(F)F.O=C(O)C(F)(F)F (H-D[X2]VYIHPF-OH) ?
Result block: 2.1

Query block: Returns the measured Ki for the input compound. Input: CCC(=O)NCCCCNC(=O)/N=C(\N)NCCC[C@H](NC(=O)[C@@H](N)CC(=O)O)C(=O)N[C@H](C(=O)N[C@@H](Cc1ccc(O)cc1)C(=O)N[C@H](C(=O)N[C@@H](Cc1cnc[nH]1)C(=O)N1CCC[C@H]1C(=O)N[C@@H](Cc1ccccc1)C(=O)O)[C@@H](C)CC)C(C)C.O=C(O)C(F)(F)F.O=C(O)C(F)(F)F.O=C(O)C(F)(F)F (H-D[X1]VYIHPF-OH)
Result block: 0.71

Query block: # lookup: Ki of CC[C@H](C)[C@H](NC(=O)[C@H](Cc1ccc(O)cc1)NC(=O)[C@@H](NC(=O)[C@H](CCCN/C(N)=N/C(=O)NCCOCCOCCN)NC(=O)[C@@H](N)CC(=O)O)C(C)C)C(=O)N[C@@H](Cc1cnc[nH]1)C(=O)N1CCC[C@H]1C(=O)N[C@@H](Cc1ccccc1)C(=O)O.O=C(O)C(F)(F)F.O=C(O)C(F)(F)F.O=C(O)C(F)(F)F.O=C(O)C(F)(F)F (H-D[X3]VYIHPF-OH)
Result block: 2.8

Query block: Would you kindly share the measured Ki for `CCOc1nc2cccc(C(=O)O)c2n1Cc1ccc(-c2ccccc2-c2nnn[nH]2)cc1` ?
Result block: 3.5

###

# protocol: Drug degradation in CHO cells expressing human AT1 receptor at 50 uM after 2 hrs by reversed-phase HPLC analysis
# Type: ADME, cell-based, Cricetulus griseus
# protocol-conditions: chinese hamster, read-out: Drug degradation
*1 amine or outer side, *2 acyl side, *3 side chain or, on linkers, in order; H or OH if unused. Where a SMILES comes first, the peptide text is derived from it. [ ]: non-standard residue; d: D form. X1 = CCC(=O)NCCCCNC(=O)/N=C(\N)NCCC[C@H](N[*:1])C(=O)[*:2]
quantity-name: metabolised at 2 h, 50 µM

Query block: Item under review: `CCC(=O)NCCOCCOCCNC(=O)/N=C(\N)NCCC[C@H](NC(=O)[C@@H](N)CC(=O)O)C(=O)N[C@H](C(=O)N[C@@H](Cc1ccc(O)cc1)C(=O)N[C@H](C(=O)N[C@@H](Cc1cnc[nH]1)C(=O)N1CCC[C@H]1C(=O)N[C@@H](Cc1ccccc1)C(=O)O)[C@@H](C)CC)C(C)C` . Reported metabolised at 2 h, 50 µM?
Result block: < 5.5%

Query block: Which value of metabolised at 2 h, 50 µM has been reported for CCC(=O)NCCCCNC(=O)/N=C(\N)NCCC[C@H](NC(=O)[C@@H](N)CC(=O)O)C(=O)N[C@H](C(=O)N[C@@H](Cc1ccc(O)cc1)C(=O)N[C@H](C(=O)N[C@@H](Cc1cnc[nH]1)C(=O)N1CCC[C@H]1C(=O)N[C@@H](Cc1ccccc1)C(=O)O)[C@@H](C)CC)C(C)C.O=C(O)C(F)(F)F.O=C(O)C(F)(F)F.O=C(O)C(F)(F)F (H-D[X1]VYIHPF-OH) in the records?
Result block: < 5.5%

###

# tested-on: Neurotensin receptor type 1 (Homo sapiens, UniProt P30989)
# Sequence (P30989 whole entry): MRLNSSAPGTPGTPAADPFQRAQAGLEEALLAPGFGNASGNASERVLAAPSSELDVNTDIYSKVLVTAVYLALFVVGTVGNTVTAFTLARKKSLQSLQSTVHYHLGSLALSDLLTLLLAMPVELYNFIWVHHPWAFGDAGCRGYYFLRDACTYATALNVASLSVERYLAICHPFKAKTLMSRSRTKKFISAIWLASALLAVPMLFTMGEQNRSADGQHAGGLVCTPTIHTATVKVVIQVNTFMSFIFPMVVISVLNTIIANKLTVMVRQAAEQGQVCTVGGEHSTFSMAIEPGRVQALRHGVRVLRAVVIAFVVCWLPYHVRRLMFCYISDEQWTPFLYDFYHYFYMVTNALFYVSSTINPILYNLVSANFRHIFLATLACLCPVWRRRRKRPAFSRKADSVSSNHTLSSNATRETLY
# protocol: Displacement of [3H]-{Nomega-[N-(4-propanoylaminobutyl)aminocarbonyl]}Arg-Arg-ProTyr-Ile-Leu-OH Tris(hydrotrifluoroacetate) from NTSR1 in human HT-29 cells after 2 hrs by liquid scintillation counting
# Assay type: cell-based
*1 amine or outer side, *2 acyl side, *3 side chain or, on linkers, in order; H or OH if unused. Where a SMILES comes first, the peptide text is derived from it. [ ]: non-standard residue; d: D form. X1 = CCC(=O)NCCCCNC(=O)/N=C(\N)NCCC[C@H](N[*:1])C(=O)[*:2]
quantity-name: Ki
Quick note: unit goes after the number.

Query block: Which Ki is reported for this compound? COc1cccc(OC)c1-c1cc(C(=O)NC2(C(=O)O)C3CC4CC(C3)CC2C4)nn1-c1ccc(C(=O)N(C)CCCN(C)C)cc1C(C)C (configuration not stated)
Result block: 1.1 nM

Query block: Ki lookup needed for CCC(=O)NCCCCNC(=O)/N=C(\N)NCCC[C@H](N)C(=O)N[C@@H](CCCNC(=N)N)C(=O)N1CCC[C@H]1C(=O)N[C@@H](Cc1ccc(O)cc1)C(=O)N[C@H](C(=O)N[C@@H](CC(C)C)C(=O)O)[C@@H](C)CC.O=C(O)C(F)(F)F.O=C(O)C(F)(F)F.O=C(O)C(F)(F)F (H-[X1]RPYIL-OH) , thanks.
Result block: 0.47 nM

###

# protocol: Drug degradation in CHO cells expressing human AT1 receptor at 50 uM after 6 hrs by reversed-phase HPLC analysis
# Assay type: ADME, cell-based, Cricetulus griseus
# protocol-conditions: chinese hamster, read-out: Drug degradation
*1 amine or outer side, *2 acyl side, *3 side chain or, on linkers, in order; H or OH if unused. Where a SMILES comes first, the peptide text is derived from it. [ ]: non-standard residue; d: D form. X1 = CCC(=O)NCCCCNC(=O)/N=C(\N)NCCC[C@H](N[*:1])C(=O)[*:2]
quantity-name: metabolised at 6 h, 50 µM

Query block: Query (compound): CCC(=O)NCCCCNC(=O)/N=C(\N)NCCC[C@H](NC(=O)[C@@H](N)CC(=O)O)C(=O)N[C@H](C(=O)N[C@@H](Cc1ccc(O)cc1)C(=O)N[C@H](C(=O)N[C@@H](Cc1cnc[nH]1)C(=O)N1CCC[C@H]1C(=O)N[C@@H](Cc1ccccc1)C(=O)O)[C@@H](C)CC)C(C)C.O=C(O)C(F)(F)F.O=C(O)C(F)(F)F.O=C(O)C(F)(F)F (H-D[X1]VYIHPF-OH) ; field requested: metabolised at 6 h, 50 µM
Result block: < 2%
